Tested on: DU-145 prostate
Test description: NCI tumour cell line growth inhibition, 48 h
Parameter: TGI

Q: Tell me its TGI given COc1ccc(NC2Oc3cc4c(cc3C(c3cc(OC)c(O)c(OC)c3)C2C)OCO4)cc1 (stereo not given) as the entry.
A: > 100 µM

Q: Tell me its TGI given CCOC(=O)C(Cc1ccccc1)(Cc1ccc(O)cn1)NC(=O)c1ccccc1 (stereo not given) as the entry.
A: > 100 µM

Q: Tell me its TGI given COc1cc(-c2cnn(C)c2)ccc1Nc1ncc2ccnc(N[C@@H](C)C(C)(C)C)c2n1 as the entry.
A: > 100 µM

Q: Tell me its TGI given COC1/C=C/C(C)C(C(C)C(OC)C(C)CCC(=O)C(C)C(CCC(=O)O)OC)OC(=O)/C=C/C=C(\C)CC(OC)CC2=CC(=O)O[C@@H](C(C)C(OC)CC(OC)/C=C/C(C)C(OC)C1)[C@H]2O (stereo not given in full) as the entry.
A: > 5 µM

Q: Tell me its TGI given OC1OC(c2ccco2)C(F)(F)C(F)(F)C1(F)F (stereo not given) as the entry.
A: > 100 µM

* * *

Test system: NCI/ADR-RES ovarian
Test description: NCI tumour cell line growth inhibition, 48 h
What TGI was measured for each of the following?
Give just the numeric value; µM need not be written.

Q: Tell me its TGI given O=C(Nc1ccccc1C(F)(F)F)c1cccc(NC2=C(Cl)C(=O)N(Cc3ccccc3)C2=O)c1 as the entry.
A: 40.7

Q: Tell me its TGI given Cc1ccc(S(=O)(=O)N2CCN(CCN(C)CCN3CCN(S(=O)(=O)c4ccc(C)cc4)CC3)CC2)cc1 as the entry.
A: 43.1

Q: Tell me its TGI given CCN(CC)CCNc1c(OC)cc(C)c2sc3ccccc3c(=O)c12 as the entry.
A: 19.2

Q: Tell me its TGI given C=CC(=O)N1CCCC(n2nc(-c3ccc(Oc4ccccc4)cc3)c3c(N)ncnc32)C1 (centres undefined) as the entry.
A: 34.8

Q: Tell me its TGI given COc1ccc(NC2Oc3cc4c(cc3C(c3cc(OC)c(O)c(OC)c3)C2C)OCO4)cc1 (centres undefined) as the entry.
A: 98

Q: Tell me its TGI given CSC1SCC2C(=O)N(C)C3(CC3C)C(=O)OCC(NC(=O)c3nc4ccccc4cc3O)C(=O)NC(C)C(=O)N(C)C1C(=O)N(C)C1(CC1C)C(=O)OCC(NC(=O)c1nc3ccccc3cc1O)C(=O)NC(C)C(=O)N2C (centres undefined) as the entry.
A: 72.7

Q: Tell me its TGI given CCOC(=O)[C@@H](C)C[C@H](Cc1ccccc1)NC(=O)c1csc([C@@H](C[C@H](C(C)C)N(C)C(=O)[C@@H](NC(=O)[C@H]2C[C@H](O[Si](C)(C)C(C)(C)C)CCN2C)C(C)C)OC(C)=O)n1 as the entry.
A: 5.03

Q: Tell me its TGI given N#Cc1c2c(c(N3CCOCC3)n3c1nc1ccccc13)CCCC2 as the entry.
A: 43.2

Q: Tell me its TGI given O=C1c2cc(Br)ccc2-c2c1c1ccc([N+](=O)[O-])cc1c(=O)n2CCCCl as the entry.
A: 7.9

Q: Tell me its TGI given Oc1ccc(N=Nc2ccc(Cl)cc2)cc1 as the entry.
A: 51.3

* * *

What TGI was measured for each of the following?
Tested on: OVCAR-4 ovarian
Test description: NCI tumour cell line growth inhibition, 48 h

Q: Tell me its TGI given COc1cc(-c2nc3ccc(C)cc3[nH]2)ccc1OCC(=O)N=Nc1c(O)[nH]c2ccccc12 as the entry.
A: 3.25 µM

Q: Tell me its TGI given O=[N+]([O-])c1c(/C=N/Nc2ccccc2)oc(-c2ccc3c(c2)OCO3)c1-c1ccc2c(c1)OCO2 as the entry.
A: > 100 µM

Q: Tell me its TGI given CCN(CC)c1ccc(N=Nc2ccc(-c3nc4cccnc4o3)cc2)cc1 as the entry.
A: > 100 µM

Q: Tell me its TGI given O=C1c2cc(Br)ccc2-c2c1c1ccc([N+](=O)[O-])cc1c(=O)n2CCCCl as the entry.
A: 77.7 µM

Q: Tell me its TGI given Cc1cc(S(=O)(=O)Nc2nnc3cc(C(F)(F)F)cc(C)n23)c(S)cc1Cl as the entry.
A: > 100 µM

Q: Tell me its TGI given O=C(NCCO)c1ccc(Cl)cc1 as the entry.
A: > 100 µM

Q: Tell me its TGI given O=C(O)C1CCc2ccc3ccccc3c2C1c1cccc2ccccc12 (configuration not stated) as the entry.
A: 90.9 µM

Q: Tell me its TGI given CSc1ncc2c(n1)-c1ccccc1OC2N1CCCC1 (configuration not stated) as the entry.
A: > 100 µM

Q: Tell me its TGI given CCOP(=O)(OCC)C(Nc1ccc(F)cc1)c1cccc([N+](=O)[O-])c1 (configuration not stated) as the entry.
A: > 100 µM

Q: Tell me its TGI given O=[N+]([O-])c1ccc2[nH]cc(-c3c4ccsc4cc4[nH]c5ccc([N+](=O)[O-])cc5c34)c2c1 as the entry.
A: 9.38 µM

Q: Tell me its TGI given O=C1[C@@H]2Cc3c([nH]c4ccccc34)C(C3CCCCC3)N2C(=O)[C@@H]2CCCN12 (some centres not stated) as the entry.
A: > 100 µM

Q: Tell me its TGI given C[CH2][Sn]1([CH2]C)[O]C(=O)[O][Sn]([CH2]C)([CH2]C)[O]1 as the entry.
A: > 100 µM

Q: Tell me its TGI given CC(C)c1ccc(Cc2cnc(NC(=O)c3cc(Br)cs3)s2)cc1 as the entry.
A: > 100 µM

Q: Tell me its TGI given CC1=CSC2=NC(c3ccc(Cl)c(Cl)c3)=CC(c3ccc(Cl)cc3)N12 (configuration not stated) as the entry.
A: > 100 µM

Q: Tell me its TGI given O=c1ccn(C2OC(CO)C(O)C2O)c(=O)[nH]1 (configuration not stated) as the entry.
A: > 1000 µM

Q: Tell me its TGI given C=CCc1cc2cccc(OC)c2oc1=O as the entry.
A: > 100 µM

Q: Tell me its TGI given Nc1c(C(=O)c2ccccc2)sc2nc(-c3cccs3)ccc12 as the entry.
A: 6.72 µM

Q: Tell me its TGI given Cc1cc(/C=C2\SC(=Nc3ccccc3)N(C3CCCC3)C2=O)c(C)n1-c1ccc(Cl)cc1 as the entry.
A: > 100 µM

Q: Tell me its TGI given Oc1ccc(N=Nc2ccc(Cl)cc2)cc1 as the entry.
A: 61 µM

Q: Tell me its TGI given CC[N+](C)(CC)CCN1C(=O)c2ccccc2S1(=O)=O as the entry.
A: > 100 µM

Q: Tell me its TGI given O=C1OS2(OCc3cccc4cccc2c34)c2ccccc21 (configuration not stated) as the entry.
A: > 100 µM

Q: Tell me its TGI given CC(=O)NC1=N/C(=C/c2cc([N+](=O)[O-])ccc2O)CN1C as the entry.
A: > 100 µM
